# experiment.notes: Plasma pharmacokinetics of PAC-1 and TMZ (LC-MS/MS, non-compartmental analysis)
# Format: in vivo, human
# recorded.conditions: human, plasma, po, 150 mg/m2, TMZ 150 mg/m^2 oral with PAC-1 625 mg/day; read-out: Tmax, median (range)
recorded.endpoint: Tmax

## Input Please give measured Tmax of the following entry: Cn1nnc2c(C(N)=O)ncn2c1=O [temozolomide, reference compound]
## Output 1 h

----------
# experiment.notes: Plasma pharmacokinetics of PAC-1 and TMZ (LC-MS/MS, non-compartmental analysis)
# Format: in vivo, human
# recorded.conditions: human, plasma, po, 150 mg/m2, TMZ 150 mg/m^2 oral with PAC-1 625 mg/day; read-out: t1/2-λ, geometric mean (geometric CV%) (converted)
recorded.endpoint: half-life (h)
The answer is to be given in h; state only the numeric part.

## Input Indicate its recorded half-life; the molecule in question is Cn1nnc2c(C(N)=O)ncn2c1=O [temozolomide, reference compound]
## Output 1.92

----------
# experiment.notes: Plasma pharmacokinetics of PAC-1 and TMZ (LC-MS/MS, non-compartmental analysis)
# Format: in vivo, human
# recorded.conditions: human, plasma, po, 150 mg/m2, TMZ 150 mg/m^2 oral with PAC-1 375 mg/day; read-out: t1/2-λ, geometric mean (geometric CV%) (converted)
recorded.endpoint: half-life (h)
Record the value in h, omitting the unit from your answer.

## Input Give the reported value of half-life for this record: Cn1nnc2c(C(N)=O)ncn2c1=O [temozolomide, reference compound]
## Output 1.86

----------
# experiment.notes: Plasma pharmacokinetics of PAC-1 and TMZ (LC-MS/MS, non-compartmental analysis)
# Format: in vivo, human
# recorded.conditions: human, plasma, po, 150 mg/m2, TMZ 150 mg/m^2 oral with PAC-1 625 mg/day; read-out: CL/F, geometric mean (geometric CV%) (converted)
recorded.endpoint: CL/F (mL/min/kg)
Write down the numeric answer in mL/min/kg and omit the unit.

## Input Output measured CL/F for this item: Cn1nnc2c(C(N)=O)ncn2c1=O [temozolomide, reference compound]
## Output 2.67

----------
# experiment.notes: Plasma pharmacokinetics of PAC-1 and TMZ (LC-MS/MS, non-compartmental analysis)
# Assay type: in vivo, human
# recorded.conditions: human, plasma, po, 150 mg/m2, TMZ 150 mg/m^2 oral with PAC-1 500 mg/day; read-out: t1/2-λ, geometric mean (geometric CV%) (converted)
recorded.endpoint: half-life (min)
Please give a number only; it is taken to be in min.

## Input Indicate the recorded half-life value for this compound: Cn1nnc2c(C(N)=O)ncn2c1=O [temozolomide, reference compound]
## Output 116

----------
# experiment.notes: Plasma pharmacokinetics of PAC-1 and TMZ (LC-MS/MS, non-compartmental analysis)
# Type: in vivo, human
# recorded.conditions: human, plasma, po, 150 mg/m2, TMZ 150 mg/m^2 oral with PAC-1 375 mg/day; read-out: CL/F, geometric mean (geometric CV%) (converted)
recorded.endpoint: CL/F (mL/min/kg)
Give the value in mL/min/kg but do not write mL/min/kg after it.

## Input Supply reported CL/F belonging to this molecule: Cn1nnc2c(C(N)=O)ncn2c1=O [temozolomide, reference compound]
## Output 2.52

----------
# experiment.notes: Plasma pharmacokinetics of PAC-1 and TMZ (LC-MS/MS, non-compartmental analysis)
# Type: in vivo, human
# recorded.conditions: human, plasma, po, 150 mg/m2, TMZ 150 mg/m^2 oral with PAC-1 625 mg/day; read-out: Cmax, geometric mean (geometric CV%)
recorded.endpoint: Cmax (ng/mL)
Give the value in ng/mL but do not write ng/mL after it.

## Input Return the recorded Cmax value; entry: Cn1nnc2c(C(N)=O)ncn2c1=O [temozolomide, reference compound]
## Output 7630

----------
# experiment.notes: Plasma pharmacokinetics of PAC-1 and TMZ (LC-MS/MS, non-compartmental analysis)
# Format: in vivo, human
# recorded.conditions: human, plasma, po, 150 mg/m2, TMZ 150 mg/m^2 oral with PAC-1 500 mg/day; read-out: Cmax, geometric mean (geometric CV%)
# Procedure: Pharmacokinetics (PK) were assessed in each dose cohort for PAC-1 following doses administered on days 7 (without TMZ) and 12 (with TMZ) of the first cycle and TMZ on day 12 of cycle 1. Both drugs were administered under fasting conditions in the morning for PAC-1 and morning or evening for TMZ. […] The PAC-1 and TMZ concentrations in plasma were determined by validated high-performance liquid chromatography and tandem mass spectrometry (LC-MS/MS) assays. […]
recorded.endpoint: Cmax (ng/mL)
Give just the number in ng/mL; leave the unit off.

## Input Determine from records and report Cmax for Cn1nnc2c(C(N)=O)ncn2c1=O [temozolomide, reference compound]
## Output 7750

----------
# experiment.notes: Plasma pharmacokinetics of PAC-1 and TMZ (LC-MS/MS, non-compartmental analysis)
# Format: in vivo, human
# recorded.conditions: human, plasma, po, 150 mg/m2, TMZ 150 mg/m^2 oral with PAC-1 500 mg/day; read-out: Tmax, median (range)
recorded.endpoint: Tmax (min)
Give the value, in units of min, as a plain number.

## Input Please report Tmax for the following compound: Cn1nnc2c(C(N)=O)ncn2c1=O [temozolomide, reference compound]
## Output 58.8

----------
# experiment.notes: Plasma pharmacokinetics of PAC-1 and TMZ (LC-MS/MS, non-compartmental analysis)
# Format: in vivo, human
# recorded.conditions: human, plasma, po, 150 mg/m2, TMZ 150 mg/m^2 oral with PAC-1 375 mg/day; read-out: AUC0-∞, geometric mean (geometric CV%)
recorded.endpoint: AUC(0-inf)
The reply should consist of the numeric value with the unit placed after it.

## Input Supply measured AUC(0-inf) of Cn1nnc2c(C(N)=O)ncn2c1=O [temozolomide, reference compound] in your reply.
## Output 22800 ng·h/mL

Cited source for all entries: paper PMC10406430
